assay: Drug uptake in Sprague-Dawley rat brain at 10 mg/kg, iv measured at 2 hrs; assay type: ADME, organism-based; set-up: dose 10 mg/kg, route intravenous; details: read-out: Drug uptake
experimental.endpoint: concentration at 2 h (ng/mL)
The figure you give is taken to be in ng/mL; do not add the unit.

Challenge: For the compound "Cl.Clc1cccc(Nc2nc(Cc3ccccc3)nc3c2CCNCC3)c1" , report concentration at 2 h.
Response given: 1480

* * *

experiment: Ratio of drug level from brain to plasma in Sprague-Dawley rat at 10 mg/kg, po measured at 2 hrs; format: ADME, organism-based; design: dose 10 mg/kg, route oral; details: read-out: BPR
experimental.endpoint: Kp at 2 h
Reply with the value as a number alone.

Challenge: For the molecule "Cl.Clc1cccc(Nc2nc(Cc3ccccc3)nc3c2CCNCC3)c1" , report Kp at 2 h.
Response given: 0.66

* * *

Below, each entry is listed with its recorded inhibition.
molecular target: 5-hydroxytryptamine receptor 2C (Homo sapiens) (UniProt P28335); assay: Displacement of [3H]-mesulergine from human recombinant 5HT-2C receptor expressed in CHOK1 cell membranes at 10 uM after 30 mins relative to control; conditions: CHO-K1
The figure you give is taken to be in %; do not add the unit.

compound.smiles: COc1cccc(Nc2nc(N3CCN(c4ccc(F)cc4)CC3)nc3[nH]ncc23)c1
experimental.endpoint: inhibition
test.value: 85

compound.smiles: COc1ccc(Nc2nc(N3CCN(c4ccc(F)cc4)CC3)nc3[nH]ncc23)cc1
experimental.endpoint: inhibition
test.value: 86

compound.smiles: CCCNc1nc(Nc2ccccc2)c2cn[nH]c2n1
experimental.endpoint: inhibition
test.value: 29

compound.smiles: CCN(CC)c1nc(Nc2ccc(Cl)cc2)c2cn[nH]c2n1
experimental.endpoint: inhibition
test.value: 80

Query molecule follows.
Challenge: Print 5-hydroxytryptamine receptor 2C (Homo sapiens) (UniProt P28335) inhibition for "COCCCNc1nc(Nc2ccc(F)cc2)c2cn[nH]c2n1" .
Response given: 28

* * *

molecular target: 5-hydroxytryptamine receptor 2C (Homo sapiens); test: Displacement of [3H]-mesulergine from human recombinant 5HT-2C receptor expressed in CHOK1 cell membranes after 30 mins; set-up: species or system CHO-K1
experimental.endpoint: pIC50
Reminder that pIC50 is minus the log10 of a molar concentration.

Challenge: For the compound "COc1ccc(Nc2nc(N3CCN(c4ccc(F)cc4)CC3)nc3[nH]ncc23)cc1" , report pIC50.
Response given: 5.93

Challenge: For the compound "COc1cccc(Nc2nc(N3CCN(c4ccc(F)cc4)CC3)nc3[nH]ncc23)c1" , report pIC50.
Response given: 5.96

Challenge: For the compound "Fc1ccc(Nc2nc(N3CCN(Cc4ccccc4)CC3)nc3[nH]ncc23)cc1" , report pIC50.
Response given: 6.08

Challenge: For the compound "Fc1ccc(Nc2nc(NCc3ccccc3)nc3[nH]ncc23)cc1" , report pIC50.
Response given: 5.59

Challenge: For the compound "CCN(CC)c1nc(Nc2ccc(C)c(C)c2)c2cn[nH]c2n1" , report pIC50.
Response given: 5.07

Challenge: For the compound "CN1CCN(c2nc(Nc3ccc(Cl)cc3)c3cn[nH]c3n2)CC1" , report pIC50.
Response given: 7.53

* * *

target: 5-hydroxytryptamine receptor 2A (Homo sapiens); test: Displacement of [3H]-ketanserin from human recombinant 5HT-2A receptor expressed in CHOK1 cell membranes after 60 mins; design: species or system CHO-K1
experimental.endpoint: IC50

Answered examples (2):
compound.smiles: CN1CCN(c2nc3c(c(N(C)C)n2)CCNCC3)CC1
measured.target: 5-hydroxytryptamine receptor 2A (Homo sapiens)
IC50: > 10 µM
--
compound.smiles: COc1cccc(Nc2nc(N3CCN(C)CC3)nc3c2CCNCC3)c1
measured.target: 5-hydroxytryptamine receptor 2A (Homo sapiens)
IC50: > 10 µM

Query molecule follows.
Challenge: For the molecule "CCCNc1nc(Nc2ccccc2)c2cn[nH]c2n1" , report IC50.
Response given: > 10 µM

* * *

Below, each entry is listed with its recorded pIC50.
molecular target: 5-hydroxytryptamine receptor 2A (Homo sapiens, UniProt P28223); assay: Displacement of [3H]-ketanserin from human recombinant 5HT-2A receptor expressed in CHOK1 cell membranes after 60 mins; design: species or system CHO-K1
Sequence (P28223 whole entry): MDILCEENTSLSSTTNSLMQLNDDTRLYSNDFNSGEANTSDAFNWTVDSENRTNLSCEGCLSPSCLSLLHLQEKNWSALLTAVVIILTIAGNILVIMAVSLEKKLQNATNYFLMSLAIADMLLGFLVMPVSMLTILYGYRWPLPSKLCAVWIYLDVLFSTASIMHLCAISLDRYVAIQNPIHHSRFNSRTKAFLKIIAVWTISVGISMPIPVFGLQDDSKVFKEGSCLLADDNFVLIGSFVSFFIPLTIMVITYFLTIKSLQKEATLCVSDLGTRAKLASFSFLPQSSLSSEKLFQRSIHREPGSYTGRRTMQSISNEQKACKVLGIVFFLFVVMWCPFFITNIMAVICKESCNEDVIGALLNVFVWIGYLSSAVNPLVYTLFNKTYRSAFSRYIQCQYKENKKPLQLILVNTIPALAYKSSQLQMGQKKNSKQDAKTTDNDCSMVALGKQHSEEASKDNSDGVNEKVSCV
pIC50: −log10 of the molar value.

Answered examples (2):
compound.smiles: CNc1nc(Nc2ccc(F)cc2)c2cn[nH]c2n1
pIC50: < 5.00
--
compound.smiles: COCCNc1nc(Nc2ccc(F)cc2)c2cn[nH]c2n1
pIC50: < 5.00

Challenge: Print 5-hydroxytryptamine receptor 2A (Homo sapiens, UniProt P28223) pIC50 for "CCNc1nc(Nc2ccccc2)c2cn[nH]c2n1" .
Response given: < 5.00

* * *

target: 5-hydroxytryptamine receptor 2A (Homo sapiens, UniProt P28223); test: Displacement of [3H]-ketanserin from human recombinant 5HT-2A receptor expressed in CHOK1 cell membranes at 10 uM after 60 mins relative to control; details: CHO-K1
experimental.endpoint: inhibition (%)
The figure you give is taken to be in %; do not add the unit.

Challenge: For the compound "CCN(CC)c1nc(Nc2ccc(F)cc2)c2cn[nH]c2n1" , report inhibition.
Response given: 84

Challenge: For the compound "CCN(CC)c1nc(Nc2cccc(OC)c2)c2cn[nH]c2n1" , report inhibition.
Response given: 87

Challenge: For the compound "CN1CCN(c2nc(Nc3ccc(F)cc3)c3cn[nH]c3n2)CC1" , report inhibition.
Response given: 100

Challenge: For the compound "Fc1ccc(Nc2nc(N3CCN(c4ccc(F)cc4)CC3)nc3[nH]ncc23)cc1" , report inhibition.
Response given: 94

Challenge: For the compound "OCCN1CCN(c2nc(Nc3ccc(F)cc3)c3cn[nH]c3n2)CC1" , report inhibition.
Response given: 100

Challenge: For the compound "COCCNc1nc(Nc2ccc(F)cc2)c2cn[nH]c2n1" , report inhibition.
Response given: 25

Challenge: For the compound "CCNc1nc(Nc2ccc(F)cc2)c2cn[nH]c2n1" , report inhibition.
Response given: 39

* * *

target: UniProt:P28335; assay: Displacement of [3H]-mesulergine from human recombinant 5HT-2C receptor expressed in CHOK1 cell membranes after 30 mins; set-up: species or system CHO-K1
Below, each entry is listed with its recorded pIC50.
Reminder that pIC50 is minus the log10 of a molar concentration.

Answered examples (6):
compound.smiles: COc1cccc(Nc2nc(N3CCN(C)CC3)nc3[nH]ncc23)c1
pIC50: 8.11
--
compound.smiles: CC1CCN(c2nc(Nc3ccc(F)cc3)c3cn[nH]c3n2)CC1
pIC50: 5.82
--
compound.smiles: CCN(CC)c1nc(Nc2cccc(OC)c2)c2cn[nH]c2n1
pIC50: 5.27
--
compound.smiles: Fc1ccc(Nc2nc(N3CCCCC3)nc3[nH]ncc23)cc1
pIC50: 5.89
--
compound.smiles: Cl.Clc1cccc(Nc2nc(Cc3ccccc3)nc3c2CCNCC3)c1
pIC50: 8.64
--
compound.smiles: c1ccc(Cc2nc3c(c(Nc4ccccc4)n2)CCNCC3)cc1
pIC50: 8.70

Challenge: For the molecule "COc1ccccc1N1CCN(c2nc(Nc3ccc(F)cc3)c3cn[nH]c3n2)CC1" , report pIC50.
Response given: 5.76

Challenge: For the molecule "CNc1nc(Nc2ccc(F)cc2)c2cn[nH]c2n1" , report pIC50.
Response given: 5.11

* * *

target: 5-hydroxytryptamine receptor 2A (Homo sapiens, UniProt P28223); assay: Displacement of [3H]-ketanserin from human recombinant 5HT-2A receptor expressed in CHOK1 cell membranes at 10 uM after 60 mins relative to control; conditions: CHO-K1
experimental.endpoint: inhibition (%)
The figure you give is taken to be in %; do not add the unit.

compound.smiles: Fc1ccc(Nc2nc(NCc3ccccc3)nc3[nH]ncc23)cc1
unit.string: %
inhibition: 85

Challenge: For the compound "CCCNc1nc(Nc2ccccc2)c2cn[nH]c2n1" , report inhibition.
Response given: 30

Challenge: For the compound "COc1cccc(Nc2nc(N3CCN(C)CC3)nc3[nH]ncc23)c1" , report inhibition.
Response given: 100

Challenge: For the compound "CCN(CC)c1nc(Nc2ccc(Cl)cc2)c2cn[nH]c2n1" , report inhibition.
Response given: 86

Challenge: For the compound "COCCCNc1nc(Nc2ccc(F)cc2)c2cn[nH]c2n1" , report inhibition.
Response given: 67

* * *

Below, each entry is listed with its recorded IC50.
Biological target: 5-hydroxytryptamine receptor 2C (Homo sapiens, UniProt P28335)
Sequence (P28335 whole entry): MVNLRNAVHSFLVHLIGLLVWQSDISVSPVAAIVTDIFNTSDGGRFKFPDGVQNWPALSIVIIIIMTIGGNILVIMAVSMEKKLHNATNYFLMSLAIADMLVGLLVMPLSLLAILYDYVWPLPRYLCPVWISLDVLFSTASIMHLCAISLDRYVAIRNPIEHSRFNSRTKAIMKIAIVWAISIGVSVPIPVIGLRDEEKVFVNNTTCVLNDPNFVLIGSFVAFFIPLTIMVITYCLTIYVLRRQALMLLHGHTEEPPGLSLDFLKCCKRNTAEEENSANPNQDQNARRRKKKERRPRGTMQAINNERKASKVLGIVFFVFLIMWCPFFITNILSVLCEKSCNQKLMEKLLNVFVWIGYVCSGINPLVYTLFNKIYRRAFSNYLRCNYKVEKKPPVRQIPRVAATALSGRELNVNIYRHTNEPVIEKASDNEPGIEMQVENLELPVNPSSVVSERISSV
Assay: Displacement of [3H]-mesulergine from human recombinant 5HT-2C receptor expressed in CHOK1 cell membranes after 30 mins
Set-up: species or system CHO-K1

compound.smiles: Fc1ccc(Nc2nc(NC3CCCC3)nc3[nH]ncc23)cc1
IC50: > 10 µM

compound.smiles: CCNc1nc(Nc2ccc(F)cc2)c2cn[nH]c2n1
IC50: > 10 µM

Query molecule follows.
Challenge: Print 5-hydroxytryptamine receptor 2C (Homo sapiens, UniProt P28335) IC50 for "COc1nc(N2CCN(C)CC2)nc2c1CCNCC2" .
Response given: > 10 µM
